# target-of-assay: Human TRPV3 (Homo sapiens, UniProt Q8NET8)
# Construct: expressed in transfected cells; host or cells: CHO cells (G-418 selection)
# assay-method-text: Screening for TRPV3 antagonist using the 45Calcium uptake assay (inhibition of 2-APB induced cellular uptake of radioactive calcium)
# Assay type: cell-based
# test-parameters: 10.0 μM test compound; human TRPV3 expressing CHO cells; 2-APB 500 μM; read-out: Percentage inhibition at 10.0 μM
# Experimental: The illustrative examples of the present invention are screened for TRPV3 activity according to a modified procedure described in Tóth, A., Kedei, N., Wang, Y. and Blumberg, P. M. Life Sciences (2003), 73, 487-498. […] The inhibition of TRPV3 receptor activation was followed as inhibition of 2-aminoethoxydiphenylborate (2-APB) induced cellular uptake of radioactive calcium. […] Radioactivity in the lysate was measured in Packardt Top count after addition of liquid scintillant. […]
Give measured inhibition at 10 µM for each item. Keep answers brief.
Give bare numbers, in %.

Recorded results for 3 compounds are shown here.
>>> recorded_value("COc1cccc(/C=C/c2nc3sccn3c(=O)c2-c2ccc(O)cc2)c1OCC1CC1 [Example 7]")
69.3
>>> recorded_value("COc1cccc(/C=C/c2nc3sccn3c(=O)c2-c2ccc(OC(F)(F)F)cc2)c1OCC(C)(C)C [Example 52]")
90.3
>>> recorded_value("CCCOc1c(/C=C/c2nc3sccn3c(=O)c2-c2ccc(C(F)(F)F)cc2)cccc1OC [Example 25]")
89.9

Here is another compound to look at.
[in] Quickly give me recorded inhibition at 10 µM for COc1cccc(/C=C/c2nc3sccn3c(=O)c2-c2ccc(C(F)(F)F)cc2)c1OCC(C)C [Example 27]
[out] 88

----------
# target-of-assay: Human TRPV3 (Homo sapiens, UniProt Q8NET8)
# Construct: expressed in transfected cells; host or cells: CHO cells (G-418 selection)
# assay-method-text: Screening for TRPV3 antagonist using the 45Calcium uptake assay (inhibition of 2-APB induced cellular uptake of radioactive calcium)
# Type: cell-based
# test-parameters: 10.0 μM test compound; human TRPV3 expressing CHO cells; 2-APB 500 μM
Respond with satisfied for Percentage inhibition at 10.0 μM values of 50% and above, not satisfied for values below.

>>> category("COc1cccc(/C=C/c2nc3sc4ccccc4n3c(=O)c2-c2ccc(C#N)cc2)c1OCC1CCC1 [Example 89]")
"satisfied"
>>> category("COc1cccc(/C=C/c2nc3sc4ccccc4n3c(=O)c2-c2ccc(C#N)cc2)c1OCC1CC1 [Example 86]")
"satisfied"
>>> category("CCOCCOc1c(/C=C/c2nc3sc4ccccc4n3c(=O)c2-c2ccc(C(F)(F)F)cc2)cccc1OC [Example 93]")
"not satisfied"
>>> category("COCCOc1c(/C=C/c2nc3sc4ccccc4n3c(=O)c2-c2ccc(C(F)(F)F)cc2)cccc1OC [Example 92]")
"not satisfied"
>>> category("COc1cccc(/C=C/c2nc3sccn3c(=O)c2-c2cc(F)cc(F)c2)c1OCC1CC1 [Example 8]")
"not satisfied"

[in] Textbook exercise: given the entry COc1cccc(/C=C/c2nc3sc4ccccc4n3c(=O)c2-c2ccc(C#N)cc2)c1OCCC(C)C [Example 88] , state whether its Percentage inhibition at 10.0 μM is greater than or equal to 50%.
[out] satisfied

[in] Textbook exercise: given the entry CCCCOc1c(/C=C/c2nc3sc4ccccc4n3c(=O)c2-c2ccc(C#N)cc2)cccc1OC [Example 87] , state whether its Percentage inhibition at 10.0 μM is greater than or equal to 50%.
[out] satisfied

[in] Textbook exercise: given the entry COc1cccc(/C=C/c2nc3sccn3c(=O)c2-c2ccc(C#N)cc2)c1OCc1cccc(F)c1 [Example 20] , state whether its Percentage inhibition at 10.0 μM is greater than or equal to 50%.
[out] satisfied

----------
# target-of-assay: Human TRPV3 (Homo sapiens)
# Construct: expressed in transfected cells; host or cells: CHO cells (G-418 selection)
# assay-method-text: Screening for TRPV3 antagonist using the 45Calcium uptake assay (inhibition of 2-APB induced cellular uptake of radioactive calcium)
# Assay type: cell-based
# test-parameters: 10.0 μM test compound; human TRPV3 expressing CHO cells; 2-APB 500 μM
Respond with Criterion met for Percentage inhibition at 10.0 μM values of 80% and above, Criterion not met for values below.

>>> category("COc1cccc(/C=C/c2nc3sccn3c(=O)c2-c2ccc(C#N)cc2)c1OC1CCCC1")
"Criterion met"

[in] Textbook exercise: given the entry `CCOCCOc1cccc(/C=C/c2nc3sccn3c(=O)c2-c2ccc(OC(F)(F)F)cc2)c1OCC1CC1` , state whether its Percentage inhibition at 10.0 μM is greater than or equal to 80%.
[out] Criterion not met

[in] Textbook exercise: given the entry `COc1cc(/C=C/c2nc3sc4ccccc4n3c(=O)c2-c2ccc(C(F)(F)F)cc2)ccc1OCCCC#N` , state whether its Percentage inhibition at 10.0 μM is greater than or equal to 80%.
[out] Criterion not met

[in] Textbook exercise: given the entry `COc1cccc(/C=C/c2nc3sc4ccccc4n3c(=O)c2-c2ccc(C(F)(F)F)cc2)c1OCC1CC1` , state whether its Percentage inhibition at 10.0 μM is greater than or equal to 80%.
[out] Criterion not met

[in] Textbook exercise: given the entry `COc1cccc(/C=C/c2nc3sccn3c(=O)c2-c2ccc(F)nc2)c1OCC1CC1` , state whether its Percentage inhibition at 10.0 μM is greater than or equal to 80%.
[out] Criterion met

----------
# target-of-assay: Human TRPV3 (Homo sapiens)
# Construct: expressed in transfected cells; host or cells: CHO cells (G-418 selection)
# Sequence (Q8NET8 1-790): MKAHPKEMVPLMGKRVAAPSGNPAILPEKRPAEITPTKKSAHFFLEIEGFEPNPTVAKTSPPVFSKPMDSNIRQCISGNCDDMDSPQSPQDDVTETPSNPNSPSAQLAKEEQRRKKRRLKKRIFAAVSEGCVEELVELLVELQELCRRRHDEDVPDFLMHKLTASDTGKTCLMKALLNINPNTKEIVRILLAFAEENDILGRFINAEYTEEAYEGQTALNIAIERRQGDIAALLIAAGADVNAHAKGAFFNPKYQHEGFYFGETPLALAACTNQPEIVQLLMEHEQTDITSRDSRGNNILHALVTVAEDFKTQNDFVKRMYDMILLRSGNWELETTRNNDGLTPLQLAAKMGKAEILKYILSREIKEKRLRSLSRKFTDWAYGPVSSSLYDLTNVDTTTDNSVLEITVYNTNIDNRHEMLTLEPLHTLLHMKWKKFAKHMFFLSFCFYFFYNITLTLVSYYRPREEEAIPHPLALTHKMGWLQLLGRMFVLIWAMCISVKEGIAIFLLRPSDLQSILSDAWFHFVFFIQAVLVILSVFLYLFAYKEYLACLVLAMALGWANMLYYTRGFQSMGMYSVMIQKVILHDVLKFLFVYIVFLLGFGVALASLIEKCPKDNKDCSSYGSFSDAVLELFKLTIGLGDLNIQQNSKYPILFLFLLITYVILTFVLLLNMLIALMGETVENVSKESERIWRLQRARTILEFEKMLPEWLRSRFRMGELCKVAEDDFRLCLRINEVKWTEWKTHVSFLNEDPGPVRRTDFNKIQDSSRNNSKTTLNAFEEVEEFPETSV
# assay-method-text: Screening for TRPV3 antagonist using the 45Calcium uptake assay (inhibition of 2-APB induced cellular uptake of radioactive calcium)
# Format: cell-based
# test-parameters: 10.0 μM test compound; human TRPV3 expressing CHO cells; 2-APB 500 μM; read-out: Percentage inhibition at 10.0 μM
Give measured inhibition at 10 µM for each item. Keep answers brief.
Answers are plain numbers, in %.

Could I get inhibition at 10 µM for every one of these entries?
1. COc1cccc(/C=C/c2nc3sccn3c(=O)c2-c2ccc(C#N)cc2)c1OCC1CCCCC1
2. O=c1c(-c2ccc(C(F)(F)F)cc2)c(/C=C/c2ccccc2OCC2CC2)nc2sccn12
3. COc1cccc(/C=C/c2nc3sccn3c(=O)c2-c2ccc(C#N)cc2)c1OCC1CC1
4. COCCOc1c(/C=C/c2nc3sc4ccccc4n3c(=O)c2-c2ccc(C#N)cc2)cccc1OC
5. COc1cccc(/C=C/c2nc3sccn3c(=O)c2-c2ccc(OC(F)F)cc2)c1OCC1CC1

[out]
1: 88.4; 2: 67.4; 3: 91.7; 4: 93.7; 5: 95.1

Could I get inhibition at 10 µM for every one of these entries?
1. COc1cccc(/C=C/c2nc3sccn3c(=O)c2-c2ccc(OC(F)(F)F)cc2)c1OCC1CCCCC1
2. COc1cccc(/C=C/c2nc3sccn3c(=O)c2-c2ccc(OC(F)(F)F)cc2)c1OCCC(F)(F)F
3. COc1cccc(/C=C/c2nc3sccn3c(=O)c2-c2ccc(OCC(F)(F)F)cc2)c1OCC1CC1
4. COc1cccc(/C=C/c2nc3sccn3c(=O)c2-c2ccccc2)c1OCC1CC1

[out]
[80.8, 97.9, 77.5, 73.1]

Could I get inhibition at 10 µM for every one of these entries?
1. COc1cccc(/C=C/c2nc3sccn3c(=O)c2-c2ccc(C(F)(F)F)cc2)c1OCC(C)(C)C
2. CCCCCOc1c(/C=C/c2nc3sccn3c(=O)c2-c2ccc(OC(F)(F)F)cc2)cccc1OC
3. O=c1c(-c2ccc(OC(F)(F)F)cc2)c(/C=C/c2cccc(F)c2OCC2CC2)nc2sccn12
4. COc1cccc(/C=C/c2nc3sccn3c(=O)c2-c2ccc(C(F)(F)F)cc2)c1OCC1CC1
5. COc1cccc(/C=C/c2nc3sc(Cl)cn3c(=O)c2-c2ccc(N(C)C)cc2)c1OCC(C)C
6. COc1cccc(/C=C/c2nc3sccn3c(=O)c2-c2ccc(C(F)(F)F)cc2)c1OCCC(C)C
7. COc1cccc(/C=C/c2nc3sccn3c(=O)c2-c2ccc(OC(F)(F)F)cc2)c1O
8. COCCOc1c(/C=C/c2nc3sccn3c(=O)c2-c2ccc(OC(F)(F)F)cc2)cccc1OC

[out]
1: 93.7; 2: 92.8; 3: 77.3; 4: 97.4; 5: 78.5; 6: 85.3; 7: 91.5; 8: 94.9

Could I get inhibition at 10 µM for every one of these entries?
1. COc1cccc(/C=C/c2nc3sccn3c(=O)c2-c2ccc(OC(F)(F)F)cc2)c1OCCC(C)C
2. COc1cccc(/C=C/c2nc3scc(C)n3c(=O)c2-c2ccc(OC(F)(F)F)cc2)c1OCC1CC1

[out]
[89.8, 79.3]

Could I get inhibition at 10 µM for every one of these entries?
1. COc1cccc(/C=C/c2nc3sccn3c(=O)c2-c2ccc(C#N)cc2)c1OCC1CCC1
2. COc1cccc(/C=C/c2nc3scc(C(F)(F)F)n3c(=O)c2-c2ccc(C#N)cc2)c1OCC(C)(C)C

[out]
1: 91.1; 2: 70.3

Could I get inhibition at 10 µM for every one of these entries?
1. COc1cccc(/C=C/c2nc3sccn3c(=O)c2-c2ccc(C#N)cc2)c1OCCC(C)C
2. CCCCOc1c(/C=C/c2nc3sccn3c(=O)c2-c2ccc(C#N)cc2)cccc1OC

[out]
1: 90; 2: 91.9

Could I get inhibition at 10 µM for every one of these entries?
1. COc1cccc(/C=C/c2nc3n(C)c4ccccc4n3c(=O)c2-c2ccc(OC(F)(F)F)cc2)c1OCC1CC1
2. COc1cccc(/C=C/c2nc3sccn3c(=O)c2-c2ccc(OC(F)(F)F)cc2)c1OCC1CC1
3. COc1ccc(-c2c(/C=C/c3cccc(OC)c3OCC3CC3)nc3sccn3c2=O)cc1
4. COc1cccc(/C=C/c2nc3sccn3c(=O)c2-c2ccc(OC(F)(F)F)cc2)c1OC1CCCC1
5. O=c1c(-c2ccc(OC(F)(F)F)cc2)c(/C=C/c2cccc(OC(F)F)c2OCC2CC2)nc2sccn12
6. CCOCCOc1c(/C=C/c2nc3sc4ccccc4n3c(=O)c2-c2ccc(OC(F)(F)F)cc2)cccc1OC
7. CCCOc1cccc(/C=C/c2nc3sccn3c(=O)c2-c2ccc(OC(F)(F)F)cc2)c1OCC1CC1

[out]
[30, 95.9, 94, 83.6, 91.8, 39.3, 34.1]

Where these numbers come from: patent US8119647B2
